Molecular target: UniProtKB P16184
Sequence (P16184 1-206): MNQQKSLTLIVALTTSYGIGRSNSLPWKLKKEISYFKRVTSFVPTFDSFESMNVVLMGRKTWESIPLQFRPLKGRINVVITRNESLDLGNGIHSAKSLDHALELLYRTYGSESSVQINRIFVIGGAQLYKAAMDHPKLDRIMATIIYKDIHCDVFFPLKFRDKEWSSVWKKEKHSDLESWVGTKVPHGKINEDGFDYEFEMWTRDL
Task for the reader: assign each of the following molecules its reported log10(IC50).
Response schema: value (number) is log10 of IC50 in units of nM.

Query: Give the measured log10(IC50) of COc1cc(Cc2cnc(N)nc2N)c2c(c1OC)OC(C(C)C)C=C2 (racemic) .
Response: 3.00

Query: How about this molecule: COc1cc(Cc2cnc(N)nc2N)c2c(c1OC)OC(CC(C)C)C=C2 (racemic)
Response: 3.48

Query: Further, for COc1cc(Cc2cnc(N)nc2N)c2c(c1OC)OC(CCCC(=O)O)C=C2 (racemic) ?
Response: 2.34

Query: Can you check COc1c(OCCCC(=O)O)cc(Cc2cnc(N)nc2N)c2c1OCC=C2 next?
Response: 1.60

Query: Likewise for CCCCCC1C=Cc2c(Cc3cnc(N)nc3N)cc(OC)c(OC)c2O1 (racemic) ?
Response: 3.45
